protein stability index by entry:
B1: PPP2R2B (parent)
chain: RNTKRDVTLEASRENSKPRAILKP

variants of: B1; test: protein stability index of a GFP-peptide fusion (GPS, HEK-293T) (PSI 1-6); higher = more stable; conditions: c terminus: a fixed tail appended;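 note: lentivirally expressed fusions sorted by FACS into six bins by GFP to DsRed ratio, PSI derived from sequencing read proportions per bin multiplied by bin number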
propertyName: protein stability index

>>> endpointvalue("L22S")
4.9
>>> endpointvalue("R5F")
4.44
>>> endpointvalue("R13Y")
4.37
>>> endpointvalue("D6Q")
4.46
>>> endpointvalue("T8C")
4.2
>>> endpointvalue("L22Y")
4.37
>>> endpointvalue("P24N")
4.82
>>> endpointvalue("L22D")
5.09
>>> endpointvalue("E14P")
4.3
>>> endpointvalue("D6G")
4.44
>>> endpointvalue("S12I")
4.07
